Recorded TGI for the following compounds
# System: M14 melanoma
# method_description: NCI tumour cell line growth inhibition, 48 h

{"compound": "CN(C(=O)OC(C)(C)C)[C@H]1CCCC[C@H]1N1CCCC1", "TGI": "> 100 µM"}
{"compound": "CC(N)Cc1cccc(C(F)(F)F)c1 (stereo not given)", "TGI": "> 100 µM"}
{"compound": "CO/C(=N/N1CC1C(F)(F)F)c1ccncc1 (stereo not given)", "TGI": "> 100 µM"}
{"compound": "CCOC(=O)[C@H](CSSc1ncnc2cc[nH]c12)NC(=O)[C@@H](C)c1ccc2cc(OC)ccc2c1", "TGI": "> 62.1 µM"}
{"compound": "COC(=O)CCc1ccc2c(c1)CCC2", "TGI": "> 100 µM"}
{"compound": "COc1cc(N2CCC(N3CCN(C)CC3)CC2)ccc1Nc1ncc(Cl)c(Nc2ccccc2P(C)(C)=O)n1", "TGI": "> 34 µM"}
{"compound": "O=C(OC(C(=O)O)C(OC(=O)c1ccccc1)C(=O)O)c1ccccc1 (stereo not given) (tested in a mixture with another compound)", "TGI": "> 100 µM"}
{"compound": "O=c1c2cccnc2[nH]c2ccc3scnc3c12", "TGI": "> 10 µM"}
{"compound": "CCN(Cc1ccc(F)cc1)c1ccc(CO)c(Cl)c1", "TGI": "> 51.8 µM"}
{"compound": "CCCSc1cc(Cl)c(C)cc1S(=O)(=O)n1cc[nH]c1=O", "TGI": "> 100 µM"}

###

# maps each entry to its TGI
# System: SK-MEL-5 melanoma
# method_description: NCI tumour cell line growth inhibition, 48 h

{"compound": "CCOC(=O)C1C(=O)CC(C)(O)C(C(=O)OCC)C1c1ccc(N(C)C)cc1 (stereo not drawn)", "system_under_test": "SK-MEL-5 melanoma", "TGI": "> 100 µM"}
{"compound": "CCOC(=O)C(NNS(=O)(=O)c1ccc(C)cc1)S(=O)(=O)C(F)(F)C(F)(F)C(F)(F)C(F)(F)F (stereo not drawn)", "system_under_test": "SK-MEL-5 melanoma", "TGI": "> 100 µM"}
{"compound": "COC(=O)/C=C\\c1ccc2c(c1)CC1(C2)Cc2ccc(/C=C/C(=O)OC)cc2C1 (stereo not drawn)", "system_under_test": "SK-MEL-5 melanoma", "TGI": "> 31.6 µM"}
{"compound": "CC12CN(CC[N+](C)(C)C)CC1(C)C1CCC2O1 (stereo not drawn)", "system_under_test": "SK-MEL-5 melanoma", "TGI": "> 100 µM"}
{"compound": "NC(=S)SCCC(=O)O", "system_under_test": "SK-MEL-5 melanoma", "TGI": "> 100 µM"}
{"compound": "COc1cccc(/C=C(/C(=O)O)c2cc(OC)c(OC)c(OC)c2)c1", "system_under_test": "SK-MEL-5 melanoma", "TGI": "> 100 µM"}
{"compound": "CCSC(=Nc1ccccc1)SC", "system_under_test": "SK-MEL-5 melanoma", "TGI": "> 100 µM"}
{"compound": "N#CN=Nc1cc(Cl)c(N=NC#N)cc1Cl", "system_under_test": "SK-MEL-5 melanoma", "TGI": "> 100 µM"}
{"compound": "O=C1CN(c2cccc(C(F)(F)F)c2)C(=O)CN1NCNN1CC(=O)N(c2cccc(C(F)(F)F)c2)CC1=O", "system_under_test": "SK-MEL-5 melanoma", "TGI": "> 100 µM"}
{"compound": "NC(=O)/N=C(\\N)NC(=O)c1ccccc1", "system_under_test": "SK-MEL-5 melanoma", "TGI": "> 100 µM"}
{"compound": "CC1=C(C)SC(=C2Sc3c(n(C)c(=O)[nH]c3=O)S2)S1", "system_under_test": "SK-MEL-5 melanoma", "TGI": "> 100 µM"}
{"compound": "CN(C(=O)OC(C)(C)C)[C@H]1CCCC[C@H]1N1CCCC1", "system_under_test": "SK-MEL-5 melanoma", "TGI": "> 100 µM"}
{"compound": "CCCCCCCCCCCCCCCCC1=CC(=O)C=C(OC)C1=O", "system_under_test": "SK-MEL-5 melanoma", "TGI": "> 100 µM"}
{"compound": "NCC(=O)C(O)C(O)C(O)CO (stereo not drawn)", "system_under_test": "SK-MEL-5 melanoma", "TGI": "> 100 µM"}
{"compound": "CC(=O)CC(=O)N(CCN(C(=O)CC(C)=O)c1ccccc1)c1ccccc1", "system_under_test": "SK-MEL-5 melanoma", "TGI": "> 100 µM"}
{"compound": "COc1cc2c(c(OC)c1OC)-c1ccc(OC)c(=O)cc1[C@@H](NC(=O)CCl)CC2", "system_under_test": "SK-MEL-5 melanoma", "TGI": "< 0.0124 µM"}
{"compound": "O=c1[nH]cnc2c(C3OC(CO)C(O)C3O)[nH]nc12 (stereo not drawn)", "system_under_test": "SK-MEL-5 melanoma", "TGI": "> 100 µM"}
{"compound": "CCc1cc(-c2nsc(=O)o2)c(S(=O)(=O)CC)s1", "system_under_test": "SK-MEL-5 melanoma", "TGI": "> 100 µM"}
{"compound": "O=C(NO)c1cccc(OCc2ccc(Br)cc2)c1", "system_under_test": "SK-MEL-5 melanoma", "TGI": "> 27.2 µM"}
{"compound": "CNC(=O)Nc1cc2c3c(c1)CCCN3CCC2", "system_under_test": "SK-MEL-5 melanoma", "TGI": "> 10 µM"}
{"compound": "Cc1cc(Cl)ccc1Nc1sc(C(=O)c2cc3cc(Cl)ccc3o2)c(N)c1C#N", "system_under_test": "SK-MEL-5 melanoma", "TGI": "> 100 µM"}
{"compound": "Cc1ccc(SCC(OCn2cnc3c(N)ncnc32)[C@H](C)F)cc1 (stereo partly drawn)", "system_under_test": "SK-MEL-5 melanoma", "TGI": "> 100 µM"}
{"compound": "CC(=O)c1ccc(-c2oc(-c3ccccc3)cc2-c2ccc3c(c2)OCO3)s1", "system_under_test": "SK-MEL-5 melanoma", "TGI": "> 100 µM"}

###

# Test system: IGROV1 ovarian
# method_description: NCI tumour cell line growth inhibition, 48 h
In this section we review reported TGI values for a set of compounds.

{"compound": "COC(=O)[C@@H]1O[C@]12C(CO[Si](C)(C)C(C)(C)C)OC(n1ccc(=O)[nH]c1=O)C2O[Si](C)(C)C(C)(C)C (stereo partly drawn)", "TGI": "46.1 µM"}
{"compound": "O=C(Sc1c(-c2ccccc2)c(=O)n(-c2ccccc2)c(=S)n1-c1ccccc1)c1ccc(Cl)cc1", "TGI": "> 100 µM"}
{"compound": "CC(=O)CC(=O)N(CCN(C(=O)CC(C)=O)c1ccccc1)c1ccccc1", "TGI": "> 100 µM"}
{"compound": "CC1(C)C(O)c2ccccc2OC1N1CCN(C2Oc3ccccc3C(O)C2(C)C)CC1 (stereo not drawn)", "TGI": "> 100 µM"}
{"compound": "O=C1C(=O)c2cc([N+](=O)[O-])ccc2-c2ccccc21", "TGI": "3.54 µM"}
{"compound": "CCOC(=O)CSc1nc2ccccc2c(=O)n1N", "TGI": "> 100 µM"}
{"compound": "COC(=O)c1ccccc1C1CN=NC12Cc1c(C)cc(C)cc1C2=O (stereo not drawn)", "TGI": "> 100 µM"}
{"compound": "CC1=CC(=O)C(C)(C2=NC(C)(C)CO2)c2ccccc21 (stereo not drawn)", "TGI": "> 100 µM"}

###

# Test system: NCI/ADR-RES ovarian
# method_description: NCI tumour cell line growth inhibition, 48 h

{"compound": "CCCCCCCC1c2cc3[nH]c(cc4nc(cc5[nH]c(cc(n2)[C@@]1(C)CC(=O)N(C)C)c(C)c5CCC(=O)O)C(CCC(=O)O)=C4C)cc3C (stereo partly drawn)", "system_under_test": "NCI/ADR-RES ovarian", "TGI": "43.1 µM"}
{"compound": "Oc1c(Br)cc(Br)cc1CN(Cc1cc(Br)cc(Br)c1O)C1CCCCC1", "system_under_test": "NCI/ADR-RES ovarian", "TGI": "> 100 µM"}
{"compound": "O=C(OCc1ccccc1)N1CCNCCNCC1", "system_under_test": "NCI/ADR-RES ovarian", "TGI": "> 100 µM"}
{"compound": "CCOC(=O)c1sc2nc(SC)nc(Nc3ccc4c(c3)OCCCO4)c2c1N", "system_under_test": "NCI/ADR-RES ovarian", "TGI": "> 100 µM"}
{"compound": "CC(C)(C)CN1[C@@H]2CCCC[C@H]2N(CC(C)(C)C)P1(=O)Cc1ccccc1", "system_under_test": "NCI/ADR-RES ovarian", "TGI": "27.1 µM"}
{"compound": "Cc1cc(S(=O)(=O)Nc2nc(N)n(-c3cnc4ccccc4n3)n2)c(S)cc1Cl", "system_under_test": "NCI/ADR-RES ovarian", "TGI": "> 100 µM"}
{"compound": "CCCCCCCCN(CCCCCCCC)C(=N)c1ccnc2ccccc12", "system_under_test": "NCI/ADR-RES ovarian", "TGI": "2.5 µM"}
{"compound": "COc1cccc2c1C(=O)C(=O)c1c-2oc(=O)c2cc(C)cc(OC)c12", "system_under_test": "NCI/ADR-RES ovarian", "TGI": "31.7 µM"}
{"compound": "CC(C)=CCNc1ncnc2c1ncn2CCC(=O)OC(C)(C)C", "system_under_test": "NCI/ADR-RES ovarian", "TGI": "> 100 µM"}
{"compound": "CCCCCCCCCCCCCCCCOP(=O)(O)OP(=O)(O)OCC1OC(n2ccc(N)nc2=O)CC1O (stereo not drawn)", "system_under_test": "NCI/ADR-RES ovarian", "TGI": "> 100 µM"}
{"compound": "O=C1CCC(=O)N1CNc1ccc2c(c1)Sc1ccccc1O2", "system_under_test": "NCI/ADR-RES ovarian", "TGI": "> 100 µM"}
{"compound": "C1COC2SC3=C(SC(=C4SC5=C(SCCS5)S4)S3)SC2O1 (stereo not drawn)", "system_under_test": "NCI/ADR-RES ovarian", "TGI": "> 100 µM"}
{"compound": "CCCCCCNC(=O)c1cc(NCc2cc(OC)ccc2OC)ccc1O", "system_under_test": "NCI/ADR-RES ovarian", "TGI": "48.1 µM"}
{"compound": "O=C(O)C(Cc1cccs1)NC(=O)C(F)(F)F (stereo not drawn)", "system_under_test": "NCI/ADR-RES ovarian", "TGI": "> 100 µM"}
{"compound": "CC(=O)O[C@H](C[C@H](C(C)C)N(C)C(=O)[C@@H](NC(=O)[C@H]1CCCCN1C)C(C)C)c1nc(C(=O)N[C@@H](Cc2ccccc2)C[C@H](C)C(=O)O)c(C)s1", "system_under_test": "NCI/ADR-RES ovarian", "TGI": "> 25 µM"}
{"compound": "COC(=O)[C@H](CCSC)NC(=O)c1ccc(CNC(=O)/C=C/c2cccc(Oc3ccccc3)c2)cc1", "system_under_test": "NCI/ADR-RES ovarian", "TGI": "> 100 µM"}
{"compound": "CC1CC(N)=Nc2ccccc2N1Cc1ccccc1 (stereo not drawn)", "system_under_test": "NCI/ADR-RES ovarian", "TGI": "28.4 µM"}
{"compound": "c1ccc(N/N=C2\\CC(c3ccccc3)Oc3ccccc32)cc1 (stereo not drawn)", "system_under_test": "NCI/ADR-RES ovarian", "TGI": "> 100 µM"}

Source of measurements: PubChem BioAssay (NCI)
